- assay.overview: Tissue distribution in Swiss nu/nu SSCUP mice bearing Beu
- Format: in vivo, human
- test.conditions: mouse, pancreas, iv, 3 umol/animal; 6 h; read-out: pancreas % ID/g
measured.endpoint: tissue uptake at 6 h
I'd appreciate it if you included the unit after the number.

Query: For the compound CCN(CC)CCNC(=O)c1ccc(I)cc1 [Derivative A, N-(2-diethylaminoethyl) 4-iodo benzamide] , give its measured tissue uptake at 6 h value.
Response: 0.36 %ID/g

* * *

- assay.overview: Tissue distribution in Swiss nu/nu SSCUP mice bearing Dau
- Format: in vivo, human
- test.conditions: mouse, blood, iv, 3 umol/animal, 2 h; read-out: blood % ID/g
- Protocol: The study of the tissue distribution of the ^125 I labelled compounds was performed in mice bearing grafted melanomas (cf. autoradiograms above). […] The animals are sacrificed at different time intervals of 1 to 24 hours after the injection. The blood is collected and the principal organs are excised. Aliquots are weighed and the radioactivity of the samples is measured in a […] 1191 counter (analytic tracer). The counting yield for iodine 125 is 60%. […]
# tissue uptake at 2 h per entry
Write down the numeric answer in %ID/g and omit the unit.

compound	unit.abbreviation	tissue uptake at 2 h
CCNCCNC(=O)c1ccc(I)cc1 [Derivative B, N-(2-ethylaminoethyl) 4-iodo benzamide]	%ID/g	0.93

Turning now to a further record.
Query: Identify tissue uptake at 2 h associated with the compound CCN(CC)CCNC(=O)c1ccc(I)cc1 [Derivative A, N-(2-diethylaminoethyl) 4-iodo benzamide]
Response: 0.52

* * *

Here, each record is paired with measured tissue uptake at 1 h data.
- assay.overview: Tissue distribution in C57 BL6 mice bearing B16
- Assay type: in vivo, mouse
- test.conditions: mouse, brain, iv, 3 umol/animal, 1 h; read-out: brain % ID/g
Form entry: value (%ID/g) — number only.

molecule	tissue uptake at 1 h [%ID/g]
CCNCCNC(=O)c1ccc(I)cc1 [Derivative B, N-(2-ethylaminoethyl) 4-iodo benzamide]	3.26

Pending molecule:
Query: Give the measured tissue uptake at 1 h for CCN(CC)CCNC(=O)c1ccc(I)cc1 [Derivative A, N-(2-diethylaminoethyl) 4-iodo benzamide]
Response: 2.67

* * *

Recorded tissue uptake at 4 h, one value per entry.
- assay.overview: Tissue distribution in Swiss nu/nu SSCUP mice bearing Dau
- Assay type: in vivo, human
- test.conditions: mouse, pancreas, iv, 3 umol/animal; 4 h; read-out: pancreas % ID/g
Hi! Could you send only the number? It should be in %ID/g, unit omitted.

Query: Give reported tissue uptake at 4 h value for CCNCCNC(=O)c1ccc(I)cc1 [Derivative B, N-(2-ethylaminoethyl) 4-iodo benzamide]
Response: 0.83

Query: Give the value of tissue uptake at 4 h reported for the following: CCN(CC)CCNC(=O)c1ccc(I)cc1 [Derivative A, N-(2-diethylaminoethyl) 4-iodo benzamide]
Response: 0.97

* * *

# tissue uptake at 6 h per entry
- assay.overview: Tissue distribution in Swiss nu/nu SSCUP mice bearing Dau
- Assay type: in vivo, human
- test.conditions: mouse, spleen, iv, 3 umol/animal; 6 h; read-out: spleen % ID/g
State the answer as a number, implicitly in %ID/g.

compound	unit.abbreviation	tissue uptake at 6 h
CCNCCNC(=O)c1ccc(I)cc1 [Derivative B, N-(2-ethylaminoethyl) 4-iodo benzamide]	%ID/g	0.33

Query: // fetch tissue uptake at 6 h given entry CCN(CC)CCNC(=O)c1ccc(I)cc1 [Derivative A, N-(2-diethylaminoethyl) 4-iodo benzamide]
Response: 0.3

* * *

- assay.overview: Tissue distribution in Swiss nu/nu SSCUP mice bearing Dau
- Type: in vivo, human
- test.conditions: mouse, liver, iv, 3 umol/animal, 24 h; read-out: liver % ID/g
measured.endpoint: tissue uptake at 24 h (%ID/g)
Number only, in %ID/g; omit the unit.

compound	unit.abbreviation	tissue uptake at 24 h
CCNCCNC(=O)c1ccc(I)cc1 [Derivative B, N-(2-ethylaminoethyl) 4-iodo benzamide]	%ID/g	0.19

Query: For the compound CCN(CC)CCNC(=O)c1ccc(I)cc1 [Derivative A, N-(2-diethylaminoethyl) 4-iodo benzamide] , give its measured tissue uptake at 24 h value.
Response: 0.1

* * *

- assay.overview: Tissue distribution in Swiss nu/nu SSCUP mice bearing Beu
- Format: in vivo, human
- test.conditions: mouse, eye, iv, 3 umol/animal, 1 h; read-out: eye % ID/g
measured.endpoint: tissue uptake at 1 h
A bare number is not enough; add the unit after it.

Query: Answer with the recorded tissue uptake at 1 h for the compound listed here: CCN(CC)CCNC(=O)c1ccc(I)cc1 [Derivative A, N-(2-diethylaminoethyl) 4-iodo benzamide]
Response: 0.64 %ID/g

* * *

- assay.overview: Tissue distribution in C57 BL6 mice bearing B16
- Format: in vivo, mouse
- test.conditions: mouse, tumor, iv, 3 umol/animal, 4 h; read-out: tumor % ID/g
Let's look at some compounds and their measured tissue uptake at 4 h.
// note: answer is a bare numeric in %ID/g

compound	unit.abbreviation	measured
CCN(CC)CCNC(=O)c1ccc(I)cc1 [Derivative A, N-(2-diethylaminoethyl) 4-iodo benzamide]	%ID/g	4.82

Now look at this one.
Query: Given the compound CCNCCNC(=O)c1ccc(I)cc1 [Derivative B, N-(2-ethylaminoethyl) 4-iodo benzamide] , write its reported tissue uptake at 4 h.
Response: 4.36

* * *

- assay.overview: Tissue distribution in Swiss nu/nu SSCUP mice bearing Beu
- Format: in vivo, human
- test.conditions: mouse, brain, iv, 3 umol/animal, 24 h; read-out: brain % ID/g
measured.endpoint: tissue uptake at 24 h (%ID/g)
Your answer should be a plain number; it is taken to be in %ID/g.

Query: Note tissue uptake at 24 h for the molecule shown: CCN(CC)CCNC(=O)c1ccc(I)cc1 [Derivative A, N-(2-diethylaminoethyl) 4-iodo benzamide]
Response: 0.006

* * *

- assay.overview: Tissue distribution in Swiss nu/nu SSCUP mice bearing Beu
- Type: in vivo, human
- test.conditions: mouse, intestine, iv, 3 umol/animal; 2 h; read-out: intestine % ID/g
measured.endpoint: tissue uptake at 2 h (%ID/g)
Write it as a number; the unit %ID/g goes unstated.

Query: Name the recorded tissue uptake at 2 h of the molecule listed here: CCN(CC)CCNC(=O)c1ccc(I)cc1 [Derivative A, N-(2-diethylaminoethyl) 4-iodo benzamide]
Response: 2.35

* * *

- assay.overview: Tissue distribution in Swiss nu/nu SSCUP mice bearing Beu
- Format: in vivo, human
- test.conditions: mouse, pancreas, iv, 3 umol/animal; 1 h; read-out: pancreas % ID/g
measured.endpoint: tissue uptake at 1 h (%ID/g)
Quick reminder: number only, in %ID/g, skip the unit.

Query: Annotate the molecule CCN(CC)CCNC(=O)c1ccc(I)cc1 [Derivative A, N-(2-diethylaminoethyl) 4-iodo benzamide] with its measured tissue uptake at 1 h.
Response: 3.99

* * *

- assay.overview: Tissue distribution in Swiss nu/nu SSCUP mice bearing Beu
- Type: in vivo, human
- test.conditions: mouse, spleen, iv, 3 umol/animal; 2 h; read-out: spleen % ID/g
measured.endpoint: tissue uptake at 2 h (%ID/g)
Give your result in %ID/g as a bare value.

Query: Look up tissue uptake at 2 h of CCN(CC)CCNC(=O)c1ccc(I)cc1 [Derivative A, N-(2-diethylaminoethyl) 4-iodo benzamide] and report it.
Response: 2.12

* * *

- assay.overview: Tissue distribution in Swiss nu/nu SSCUP mice bearing Dau
- Type: in vivo, human
- test.conditions: mouse, pancreas, iv, 3 umol/animal; 12 h; read-out: pancreas % ID/g
measured.endpoint: tissue uptake at 12 h (%ID/g)
Kindly answer with a numeric value in %ID/g, unit omitted.

molecule	tissue uptake at 12 h [%ID/g]
CCN(CC)CCNC(=O)c1ccc(I)cc1 [Derivative A, N-(2-diethylaminoethyl) 4-iodo benzamide]	0.13

Now consider a different molecule.
Query: Read the entry CCNCCNC(=O)c1ccc(I)cc1 [Derivative B, N-(2-ethylaminoethyl) 4-iodo benzamide] and write its reported tissue uptake at 12 h.
Response: 0.08

* * *

- assay.overview: Tissue distribution in C57 BL6 mice bearing B16
- Format: in vivo, mouse
- test.conditions: mouse, lung, iv, 3 umol/animal, 12 h; read-out: lungs % ID/g
measured.endpoint: tissue uptake at 12 h (%ID/g)
Report as a plain number; the unit %ID/g is understood.

Query: // Input: CCN(CC)CCNC(=O)c1ccc(I)cc1 [Derivative A, N-(2-diethylaminoethyl) 4-iodo benzamide] . Output its tissue uptake at 12 h only.
Response: 0.2

* * *

- assay.overview: Tissue distribution in C57 BL6 mice bearing B16
- Type: in vivo, mouse
- test.conditions: mouse, plasma, iv, 3 umol/animal; 8 h; read-out: plasma % ID/g
measured.endpoint: tissue uptake at 8 h (%ID/g)
Give just the numeric value; %ID/g need not be written.

Query: Determine its reported tissue uptake at 8 h: CCN(CC)CCNC(=O)c1ccc(I)cc1 [Derivative A, N-(2-diethylaminoethyl) 4-iodo benzamide]
Response: 0.38

* * *

tissue uptake at 24 h by entry:
- assay.overview: Tissue distribution in Swiss nu/nu SSCUP mice bearing Dau
- Format: in vivo, human
- test.conditions: mouse, eye, iv, 3 umol/animal, 24 h; read-out: eye % ID/g
Provide only the numeric value, understood in %ID/g.

compound	measured.endpoint	measured
CCN(CC)CCNC(=O)c1ccc(I)cc1 [Derivative A, N-(2-diethylaminoethyl) 4-iodo benzamide]	tissue uptake at 24 h	0.02

Here is another compound to look at.
Query: Please give the documented tissue uptake at 24 h of CCNCCNC(=O)c1ccc(I)cc1 [Derivative B, N-(2-ethylaminoethyl) 4-iodo benzamide]
Response: 0.008
